These entries and their values trace back to patent US20220135701A1.

Record form. Attribute: Max Inhibition (%), efferocytosis by human macrophages, Donor C. Fill in for each entry.
Target: T1, human MerTK on human macrophages (human, UniProt Q12866 21-999)
T1 sequence: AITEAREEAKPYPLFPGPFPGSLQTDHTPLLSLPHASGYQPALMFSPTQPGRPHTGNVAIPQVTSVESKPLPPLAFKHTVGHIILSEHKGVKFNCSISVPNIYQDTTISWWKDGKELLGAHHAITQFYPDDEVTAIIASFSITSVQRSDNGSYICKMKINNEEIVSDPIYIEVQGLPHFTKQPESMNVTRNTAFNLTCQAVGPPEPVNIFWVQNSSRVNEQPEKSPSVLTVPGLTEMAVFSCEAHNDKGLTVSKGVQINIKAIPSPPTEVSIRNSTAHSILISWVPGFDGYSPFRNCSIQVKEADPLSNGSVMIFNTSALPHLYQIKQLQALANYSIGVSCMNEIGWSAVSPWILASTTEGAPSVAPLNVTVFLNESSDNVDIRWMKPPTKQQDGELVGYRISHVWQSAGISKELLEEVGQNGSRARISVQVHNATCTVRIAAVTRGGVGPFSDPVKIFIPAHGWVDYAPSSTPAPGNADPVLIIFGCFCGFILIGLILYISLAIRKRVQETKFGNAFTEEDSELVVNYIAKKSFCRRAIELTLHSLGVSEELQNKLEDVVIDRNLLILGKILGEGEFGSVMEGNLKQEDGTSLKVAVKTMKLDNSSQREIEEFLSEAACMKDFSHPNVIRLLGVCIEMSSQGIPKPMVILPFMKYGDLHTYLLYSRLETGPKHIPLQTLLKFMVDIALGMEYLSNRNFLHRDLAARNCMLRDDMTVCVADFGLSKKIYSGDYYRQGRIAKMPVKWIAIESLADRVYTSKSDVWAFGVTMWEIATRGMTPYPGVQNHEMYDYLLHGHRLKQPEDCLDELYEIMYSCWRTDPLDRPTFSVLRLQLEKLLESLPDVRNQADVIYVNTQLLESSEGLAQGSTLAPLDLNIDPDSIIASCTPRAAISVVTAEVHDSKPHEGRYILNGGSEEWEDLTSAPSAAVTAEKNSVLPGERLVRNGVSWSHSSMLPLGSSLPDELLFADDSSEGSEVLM
Assay: cell-based or functional assay
Write the number in % without appending the unit.

What does the data say about its Max Inhibition (%), efferocytosis by human macrophages, Donor C? Entry: h10F7.v16 (antibody, V domains shown, Humanized, human IgG1; also called 10F7 Fully Humanized; 10F7 Humanized polished mAb) VH: EVQLVESGGGLVQPGGSLRLSCAVSGFSLSGYAMSWVRQAPGKGLEYIGVISSSGSSYYPSWAKGRFTISKDNSKNTLYLQMGSLRAEDMAVYYCARVQFYVGYAVYGYGIIDRLDLWGQGTLVTVSS VL: DIVLTQSPDSLAVSLGERATINCQSSKSVYNNNWLSWYQQKPGQPPKLLIYRASTLESGVPDRFSGSGSGTDFTLTISSLQAEDVAVYFCAGGYSSSSSANAFGGGTKVEIK
60

What does the data say about its Max Inhibition (%), efferocytosis by human macrophages, Donor C? Entry: h9E3.FN.v16 (antibody, V domains shown, Humanized, human IgG1; also called 9E3.FN Humanized polished mAb) VH: EVQLVESGGGLIQPGGSLRLSCAASGFSLSSNAMSWVRQAPGKGLEWVSIISSSGSTYSASWAKGRFTISKDNSKNTLYLQMNSLRAEDTAVYYCARVGFFVGYGAYDYGIIHRLDLWGQGTLVTVSS VL: DIQLTQSPSTLSASVGDRVTITCQSSKSIYNNNWLSWYQQKPGKPPKLLIYDASDLASGVPSRFSGSGSGTEFTLTISSLQPDDFATYYCAGGYSGDSDYAFGGGTKVEIK
55

What does the data say about its Max Inhibition (%), efferocytosis by human macrophages, Donor C? Entry: h13B4.v16 (antibody, V domains shown, Humanized, human IgG1; also called 13B4 Fully Humanized; 13B4 Humanized polished mAb) VH: EVQLVESGEGLVQPGGSLRLSCAASGFSLSSYAMGWVRQAPGKGLEYVGIINSYGNTYYANWAKGRFTISRDNSKNTVYLQMGSLRAEDMAVYYCARDPGVSSNLWGRGTLVTVSS VL: DIQMTQSPSTLSASVGDRVTITCQASQNIYSGLAWYQQKPGKAPKLLIYGASKLASGVPSRFSGSGSGTEFTLTISSLQPDDFATYYCQATYYSSNSVAFGGGTKVEIK
77
